# Tested on: M14 melanoma
# protocolNotes: NCI-60 one-dose screen, 48 h (100 = growth as untreated, 0 = no growth, -100 = all killed)
# details: 10 µM unless noted
# Method: Growth inhibition of the M14 human tumor cell line is measured as a screen for anti-cancer activity. Cells are grown in 96 well plates and exposed to the test compound for 48 hours. Compounds are tested at a single concentration, which is 10^-5 M for most compounds. The reported endpoint is percent growth (GI% or GIPRCNT), where numbers from 0 - 100% represent growth inhibition, and numbers from -100% - 0 represent cell death. For example, a value of 40 represents 60% growth inhibition. […]
This is part of a sample that, as a whole, favours compounds with a hit. Of some 83,000 tested, about 20% had one in any assay.
I'd be grateful if you could share measured growth for these entries.
Quick reminder: number only, in %, skip the unit.

Dear colleague, please send me the reported growth for COc1cc(C(=O)C[n+]2ccc3ccccc3c2)cc(OC)c1OC when you can.
98.1

Dear colleague, please send me the reported growth for COc1cc2oc(-c3cccc(NC(=O)c4cc(NC(=O)[C@H](C)N)ccc4Cl)c3)cc(=O)c2c(OC)c1OC when you can.
115

Dear colleague, please send me the reported growth for COc1ccc(-c2nc3cc(Cl)c(Cl)cc3n2CC(=O)N=Nc2c(O)[nH]c3ccc(Cl)cc23)cc1 when you can.
11.9

Dear colleague, please send me the reported growth for COc1ccc2c(c1)oc1c3[nH]c4ccccc4c3c3c(c21)C(=O)N(O)C3=O when you can.
29.9

Dear colleague, please send me the reported growth for COc1ccc(Oc2ccc(C3CC(c4cc(OC)c(OC)c(OC)c4)=NN3C(C)=O)cc2)cc1 (stereo not given) when you can.
27.6

Dear colleague, please send me the reported growth for COc1cc2c3c(n(CCCNC4CCCC4)c(=O)c2cc1OC)-c1cc2c(cc1C3=O)OCO2 when you can.
-88.9

Dear colleague, please send me the reported growth for O=C(COc1cccc2cccnc12)Nc1ccc(C(=O)/C=C/c2ccc(Cl)cc2)cc1 when you can.
99.5

Dear colleague, please send me the reported growth for CCOC(=O)c1c(NC(=O)c2cccc(C(F)(F)F)c2)sc2c(CN3CCN(C)CC3)c(O)ccc12 when you can.
-54.6

Dear colleague, please send me the reported growth for Cc1cc(=O)n2nc(-c3cn(C)c4ccc(Cl)cc34)sc2n1 when you can.
92

Dear colleague, please send me the reported growth for NC(=S)N/N=C(/C=C/c1cn(-c2ccccc2)nc1-c1ccc(Cl)cc1)c1cc2ccccc2oc1=O when you can.
54.1

Dear colleague, please send me the reported growth for O=C1[C@@H]2Cc3c([nH]c4ccccc34)[C@H](c3c(Cl)cccc3Cl)N2C(=O)CN1C1CCN(Cc2c(F)cccc2F)CC1 when you can.
75.2

Dear colleague, please send me the reported growth for O=C(COc1ccc(C2SCC(=O)N2c2ccc(F)cc2)cc1)c1ccccc1 (stereo not given) when you can.
93.6

Dear colleague, please send me the reported growth for CCCCCCCCCC[C@@H](C)[C@@H]1CC(=O)N[C@H]([C@@H](C)O)C(=O)N[C@@H](C)C(=O)N[C@H](C)C(=O)N[C@@H](CCC(N)=O)C(=O)N[C@H](Cc2ccc(O)cc2)C(=O)N[C@@H](C(C)CC)C(=O)O1 (stereo not given in full) when you can.
79.4

Dear colleague, please send me the reported growth for Cn1cc2c(c1)-c1c(sc3nc(-c4ccc(NC(=O)Nc5cc(C(C)(C)C)on5)cc4)cn13)CC2 when you can.
60.5

Dear colleague, please send me the reported growth for CC(=O)Nc1ccc(NC(=O)Nc2cccc(-c3nc(-c4ccc(NC(=O)c5cccs5)cc4Cl)no3)c2)cc1C(F)(F)F when you can.
-59.2

Dear colleague, please send me the reported growth for COc1cc(C2=NN(C(C)=O)C(c3ccc(N4CCOCC4)cc3)C2)cc(OC)c1OC (stereo not given) when you can.
84.1

Dear colleague, please send me the reported growth for O=C(CN1CCN(c2cc(=O)n(-c3ccccc3)c3ccccc23)CC1)Nc1ccc([N+](=O)[O-])cc1 when you can.
99

Dear colleague, please send me the reported growth for O=C1c2c(c3c4cccnc4[nH]c3c3ccc4ccccc4c23)C(=O)N1CCN1CCNCC1 when you can.
64.4

Dear colleague, please send me the reported growth for O=C1[C@H]2Cc3c([nH]c4ccccc34)[C@@H](c3ccc(Cl)cc3)N2C(=O)CN1C1CCN(Cc2c(Cl)cccc2Cl)CC1 when you can.
84.5

Dear colleague, please send me the reported growth for O=C(CCCCCCN1CC(=O)N2[C@@H](c3cc(F)cc(F)c3)c3[nH]c4ccccc4c3C[C@H]2C1=O)NO when you can.
51.9

Dear colleague, please send me the reported growth for Clc1ccc(-c2csc(Nc3cccc(Nc4csc(-c5ccc(Cl)cc5)n4)c3)n2)cc1 when you can.
74.7

Dear colleague, please send me the reported growth for Oc1ccc(CSc2nnc(-c3ccncc3)n2-c2ccccc2)c2cccnc12 when you can.
23.1

Dear colleague, please send me the reported growth for COC(=O)[C@@]1(C)CC[C@]2(C)CC[C@]3(C)C(=CC(=O)[C@@H]4[C@@]5(C)Cc6c(n(CC#CCN7CCN(C)CC7)c7ccccc67)C(C)(C)[C@@H]5CC[C@]43C)[C@@H]2C1 when you can.
90.6

Dear colleague, please send me the reported growth for O=C1Nc2ccc(Cl)cc2/C1=C/c1ccc(OCc2ccc(Br)cc2F)cc1 when you can.
90.1

Dear colleague, please send me the reported growth for CS(=O)(=O)c1nccc(-c2c(-c3ccc(F)c(OCCc4ccc(F)cc4)c3)nc3sccn23)n1 when you can.
83.9

Dear colleague, please send me the reported growth for COc1ccc(NC(=O)Cn2cc(CN3C(=O)c4ccc([N+](=O)[O-])cc4C3=O)nn2)cc1 when you can.
108

Dear colleague, please send me the reported growth for Cn1cc(-c2nn3cc(-c4cccnc4)nc3s2)c2cc(F)ccc21 when you can.
84.8

Dear colleague, please send me the reported growth for O=C1c2cc(Br)ccc2-n2c1nc1cc(Br)ccc1c2=O when you can.
72.2

Dear colleague, please send me the reported growth for CCOC(=O)c1ccc(N/C=C/C(=O)c2ccccc2)cc1 when you can.
97

Dear colleague, please send me the reported growth for COc1cc2c3c(n(CCCNCC4CC4)c(=O)c2cc1OC)-c1cc2c(cc1C3=O)OCO2 when you can.
31.9

* * *

# Test system: SNB-19 CNS
# protocolNotes: NCI-60 one-dose screen, 48 h (100 = growth as untreated, 0 = no growth, -100 = all killed)
# details: 10 µM unless noted
This is part of a sample that, as a whole, favours compounds with a hit. Of some 83,000 tested, about 20% had one in any assay.
I'd be grateful if you could share measured growth for these entries.
Quick reminder: number only, in %, skip the unit.

Dear colleague, please send me the reported growth for COc1ccc([C@@H]2[C@@H](O)C(=O)N2c2cc(OC)c(OC)c(OC)c2)cc1 when you can.
31.6

Dear colleague, please send me the reported growth for CCCCCCNC(=O)Oc1ccc(/C(=C(\C)c2ccc(OC)cc2)c2ccc(OCCN(C)C)cc2)cc1 when you can.
74.9

Dear colleague, please send me the reported growth for CN1CCN(Cc2ccc(NC(=O)c3cncc(C#Cc4cnc5ccc(O[C@H]6CCOC6)nn45)c3)cc2C(F)(F)F)CC1 when you can.
-69.2

Dear colleague, please send me the reported growth for CC(C)=CCc1c2c(c(O)c3c1O[C@]14C(=C[C@@H]5C[C@H]1C(C)(C)O[C@@]4(C/C=C(/C)C(=O)O)C5=O)C3=O)CC(O)C(C)(C)O2 (stereo not given in full) when you can.
22.6

Dear colleague, please send me the reported growth for COc1ccc(CN2C(=O)/C(=C/c3nc(CO)cs3)SC2=S)cc1 when you can.
93.8

* * *

I'd be grateful if you could share measured growth for these entries.
# Tested on: MALME-3M melanoma
# protocolNotes: NCI-60 one-dose screen, 48 h (100 = growth as untreated, 0 = no growth, -100 = all killed)
# details: 10 µM unless noted
Compounds without any hit were thinned out: in the full panel of roughly 83,000, 20% have a hit.
Quick reminder: number only, in %, skip the unit.

Dear colleague, please send me the reported growth for Oc1ccc(CSc2nnc(-c3ccncc3)o2)c2cccnc12 when you can.
2.27

Dear colleague, please send me the reported growth for CCOC(=O)C1=C(C)Nc2nc3ccccc3n2C1c1ccccc1 (stereo not given) when you can.
94.3

Dear colleague, please send me the reported growth for O=C(/C=C1\C=CN(CCCCCCF)c2ccccc21)n1ccc2ccccc21 when you can.
91.6

Dear colleague, please send me the reported growth for CCOC(=O)c1c(Nc2ccccc2)nn2c(-c3ccc(OC)c(OC)c3)ccnc12 when you can.
76.2

Dear colleague, please send me the reported growth for Cc1cc(O)c(=O)cc2c1C[C@H]1CC(C)(C)/C=C/C[C@]3(C)Oc4cc(=O)c(O)cc(C)c4C[C@H]3C[C@H](O)[C@@]1(C)O2 when you can.
-8.22
